Target: Metabotropic glutamate receptor 8 (Rattus norvegicus) (UniProt P70579)
Sequence (P70579 whole entry, looked up): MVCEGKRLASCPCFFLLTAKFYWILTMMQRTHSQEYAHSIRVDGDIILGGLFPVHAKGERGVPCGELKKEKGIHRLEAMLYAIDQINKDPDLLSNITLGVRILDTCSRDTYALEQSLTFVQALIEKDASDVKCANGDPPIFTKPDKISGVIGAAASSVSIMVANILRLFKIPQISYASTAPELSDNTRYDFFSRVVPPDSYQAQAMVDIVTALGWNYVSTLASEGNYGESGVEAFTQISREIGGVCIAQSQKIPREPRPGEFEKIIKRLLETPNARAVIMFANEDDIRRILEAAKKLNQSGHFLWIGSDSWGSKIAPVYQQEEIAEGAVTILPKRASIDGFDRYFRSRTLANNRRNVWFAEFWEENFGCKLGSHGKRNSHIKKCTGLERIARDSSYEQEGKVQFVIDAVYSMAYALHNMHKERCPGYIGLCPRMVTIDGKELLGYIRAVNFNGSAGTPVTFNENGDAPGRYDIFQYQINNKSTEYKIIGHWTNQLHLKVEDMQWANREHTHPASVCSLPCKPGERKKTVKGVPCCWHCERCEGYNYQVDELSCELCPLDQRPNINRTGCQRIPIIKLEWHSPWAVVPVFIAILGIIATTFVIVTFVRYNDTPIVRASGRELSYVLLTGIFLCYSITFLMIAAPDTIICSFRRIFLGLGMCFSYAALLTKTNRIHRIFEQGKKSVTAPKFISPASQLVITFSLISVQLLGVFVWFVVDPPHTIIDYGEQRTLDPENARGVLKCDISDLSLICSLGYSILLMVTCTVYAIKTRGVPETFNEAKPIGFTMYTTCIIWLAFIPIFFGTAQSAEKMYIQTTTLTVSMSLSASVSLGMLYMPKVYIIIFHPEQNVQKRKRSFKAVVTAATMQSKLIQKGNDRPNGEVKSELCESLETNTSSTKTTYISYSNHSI
Assay: mGluR8 Gi/Go-coupled signaling modulation – cell-based, rat, thallium flux, HTS, primary screen (AID 488969)
Conditions: HEK293 rat mGluR8, GIRK thallium flux, FluoZin2; at 10 µM; stronger effect = higher value; submaximal glutamate (EC20) added with thallium
Over roughly 110,000 compounds, “z-score” has its median near -0.1; the highest 2% begin near 2. The full list was thinned out, with the highest values kept by preference.
Note: every record was labeled by where its z-score sits among lowest (below -0.1), middle (-0.1 to below 0.3), highest (0.3 or more)

stdin: Place this compound in its band: O=C(NCc1ccco1)C1CCN(c2ccc(N3CCOCC3)nn2)CC1
stdout: highest

stdin: Place this compound in its band: C=CCNC(=S)Nc1sc2c(c1C(=O)OCC)CC(C)(CC)OC2 (stereo unspecified)
stdout: highest

stdin: Place this compound in its band: C[N+]1(CC2COC3(CCCCC3)O2)CCCC1 (stereo unspecified)
stdout: lowest

stdin: Place this compound in its band: CC(C)C1Cc2c(sc(NC(=S)NC(=O)c3ccccc3)c2C#N)CO1 (stereo unspecified)
stdout: lowest

stdin: Place this compound in its band: CCOC(=O)c1c(NC(=S)Nc2ccccc2)sc2c1CC(C)(C)SC2
stdout: middle

stdin: Place this compound in its band: CCOC(=O)c1c(NC(=S)Nc2ccccc2)sc2c1CCN(CCc1ccccc1)C2
stdout: middle

stdin: Place this compound in its band: CCOC(=O)c1c(NC(=O)c2ccccc2C)sc2c1CC(C)(C)OC2
stdout: lowest

stdin: Place this compound in its band: C=CCNC(=S)Nc1sc2c(c1C(=O)OCC)CCN(C(=O)OCC)C2
stdout: middle

stdin: Place this compound in its band: CCOc1ccc(N(CC(=O)N2CC=C(c3ccccc3)CC2)S(=O)(=O)c2c(C)noc2C)cc1
stdout: lowest

stdin: Place this compound in its band: C=CCNC(=S)Nc1sc2c(c1C(=O)OCC)CC(C(C)C)OC2 (stereo unspecified)
stdout: highest

stdin: Place this compound in its band: C1CCC2(CC1)OCC1(CO2)COC2(CCCCC2)OC1
stdout: highest

* * *

What z-score was measured for each of the following?
Molecular target: Metabotropic glutamate receptor 8 (Rattus norvegicus) (UniProt P70579)
Assay: mGluR8 Gi/Go-coupled signaling modulation – cell-based, rat, thallium flux, HTS, primary screen (AID 488969)
Details: HEK293 rat mGluR8, GIRK (G protein-gated inwardly rectifying potassium channel) thallium flux, FluoZin2; at 10 µM; stronger effect = higher value; submaximal glutamate (EC20) added with thallium
The full ranking holds about 110,000 compounds; the median of “z-score” is about -0.1, and the highest 2% start at about 2. The sample as a whole holds a higher share of the highest values than the screen did.
# output: bare number, no unit

stdin: Requested field: z-score. Item: CCNC(=O)NC(=O)C(C)Sc1nc2cc(C(=O)OC)ccc2c(=O)n1-c1ccccc1 (stereo not given)
stdout: 0.204

stdin: Requested field: z-score. Item: CCCC(=O)Nc1ccc(C(=O)Nc2nc(CC(=O)OCC)cs2)cc1
stdout: -0.437

stdin: Requested field: z-score. Item: O=C(N/N=C/c1ccc(-c2ccccc2[N+](=O)[O-])o1)c1cncc(Br)c1
stdout: -1.68

stdin: Requested field: z-score. Item: CCSc1nnc(NC(=O)CSc2nnc(-c3c[nH]c4ccccc34)n2CC)s1
stdout: -1.46

stdin: Requested field: z-score. Item: COc1ccccc1NC(=O)CSc1nc(O)c(Cc2ccccc2)c(=O)[nH]1
stdout: 0.381

stdin: Requested field: z-score. Item: Cc1ccc(S(=O)(=O)N2CCN(c3cc4c(cc3[N+](=O)[O-])n(C)c(=O)n4C)CC2)cc1
stdout: -0.078

stdin: Requested field: z-score. Item: COC(=O)CCc1c(C)c(C#N)c2nc3ccccc3n2c1N1CCCC1
stdout: -0.478

stdin: Requested field: z-score. Item: Cc1ccc(Nc2nc(N)nc(CC#N)n2)cc1
stdout: 0.115

stdin: Requested field: z-score. Item: Cc1nc(NC(C)C(=O)O)c2nc(C)oc2n1 (stereo not given)
stdout: -0.0905

stdin: Requested field: z-score. Item: Cc1ccc(NC2=NC(=S)N(CC#N)C23CCCCC3)cc1
stdout: 3.98

Reference source for all entries: PubChem BioAssay AID488969
